tested on: SB.msgc-1; test: area under the dose-response curve of % viability (trapezoidal, 11 doses) (% viability x log10 concentration); higher = less cytotoxic; settings: SB.msgc-1 (sporadic gastric cancer)
Would you kindly list area under the dose-response curve for each of these compounds?
One number for each entry.

Completed entries (count: 2):
COMPOUND | ASSAYED TARGET | MEASURED QUANTITY | OBS VALUE
C[N]1C2=C(SC(=C2)[S+](C)[O-])C\3=C1C(=O)N(CC4=CC(=CC=C4)N)\N=C3 (stereo unspecified) (top concentration 46.0829 µM) | SB.msgc-1 | area under the dose-response curve | 535
Cc1ccc2c(=O)c3cccc(CC(=O)O)c3oc2c1C [Vadimezan] (top concentration 46.0829 µM) | SB.msgc-1 | area under the dose-response curve | 498

Your task in this section: give area under the dose-response curve for each listed record.
1. CC\1=C(C(=O)N(\C=C1)C2=CC=C(C=C2)C3=NC=CO3)/C4=CC5=CN=C(N)N=C5C=C4 [AMG-25] (top concentration 46.0829 µM)
2. Oc1cc(-c2nc(-c3ccccc3)[nH]c2-c2ccncc2)ccc1Cl (top concentration 46.0829 µM)
3. O=C(Nc1ccccc1Br)N[C@@H]1CCN(c2ccc(C(F)(F)F)cn2)C1 (top concentration 46.0829 µM)
4. CC(=O)[C@H]1CC[C@H]2[C@@H]3C/C=C4/C[C@@H](O)CC[C@]4(C)[C@H]3CC[C@]12C [Pregnenolone] (top concentration 46.0829 µM)

506
488
542
523

---

Would you kindly list viability for each of these compounds?
system: SB.mhdgc-1; assay: viability at highest tested concentration (MAXR) relative to DMSO; higher = less cytotoxic; details: SB.mhdgc-1 (hereditary c.1380delA CDH1 gastric cancer)

COMPOUND | viability
COC1=CC=CC2=C1C(=NC(=N2)C3=CC=CS3)NN4C(=O)\C=C(C)/C4=O (top concentration 46.0829 µM) | 2.71%

Your task in this section: give viability for each listed record.
1. CN1\C(=C(\O)C2=C(C=CS2)[S+]1([O-])=O)C(=O)NC3=CC=CC=N3 [Tenoxicam] (top concentration 46.0829 µM)
2. CN(C)CCOc1ccc(/C(=C(/CCCl)c2ccccc2)c2ccccc2)cc1 [Toremifene] (top concentration 46.0829 µM)
3. CCCc1nc(C(C)(C)O)c(C(=O)O)n1Cc1ccc(-c2ccccc2-c2nn[nH]n2)cc1 [Olmesartan] (top concentration 46.0829 µM)
4. CC(C)(C)C(=O)Oc1ccc([S+](=O)([O-])Nc2ccccc2C(=O)NCC(=O)O)cc1 [Sivelestat] (top concentration 46.0829 µM)
5. C[C@]12CCC(=O)C=C1CC[C@@H]1[C@@H]2CC[C@@]2(C)[C@H]1CC[C@]2(C)O [Methyltestosterone] (top concentration 92.1659 µM)
6. O=C1CCc2ccc(OCCCCN3CCN(c4cccc(Cl)c4Cl)CC3)cc2N1 [Aripiprazole] (top concentration 46.0829 µM)

1. 111%
2. 3.26%
3. 124%
4. 134%
5. 73.4%
6. 75.5%

Your task in this section: give viability for each listed record.
1. COc1cc(Nc2ncc(F)c(Nc3ccc4c(n3)NC(=O)C(C)(C)O4)n2)cc(OC)c1OC [R406] (top concentration 46.0829 µM)
2. CC(=O)O[C@@]12CO[C@@H]1C[C@H](O)[C@]3(C)[C@@H]2[C@H](OC(=O)C4=CC=CC=C4)[C@]5(O)C[C@H](OC(=O)C(O)[C@@H](NC(=O)OC(C)(C)C)C6=CC=CC=C6)C(=C(/[C@@H](O)C3=O)C5(C)C)/C (some centres not stated) [Docetaxel] (top concentration 46.0829 µM)
3. CCOC(=O)c1ccc(C#Cc2ccc3c(c2)C(C)(C)CCS3)nc1 [Tazarotene] (top concentration 46.0829 µM)

49.5%
45.6%
54.9%

Your task in this section: give viability for each listed record.
1. CNC(=O)c1ccc(N2C(=S)N(c3cnc(C#N)c(C(F)(F)F)c3)C(=O)C23CCC3)cc1F [ARN-509] (top concentration 46.0829 µM)
2. Cn1c(=O)c2c(ncn2C)n(C)c1=O.O=C(O)CC(O)(CC(=O)O)C(=O)O [Caffeine] (top concentration 46.0829 µM)

["2.3%", "57.7%"]
